Biological target: KRAS G12C (Homo sapiens, UniProt P01116+P62937, G12C)
Sequence (P01116 1-169 isoform P01116-2 G12C, one chain of several): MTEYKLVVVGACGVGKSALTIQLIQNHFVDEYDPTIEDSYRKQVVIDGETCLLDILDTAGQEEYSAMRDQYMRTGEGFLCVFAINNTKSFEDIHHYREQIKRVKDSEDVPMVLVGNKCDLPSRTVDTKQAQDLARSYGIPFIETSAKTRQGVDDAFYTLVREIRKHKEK
Assay: Disruption of BRAF RBD interaction with Ras (FRET / MOA assay, with Cyclophilin A)
Format: biochemical
Settings: KRAS G12C; read-out: KRAS G12C FRET data IC50
pIC50: −log10 of the molar value.
pIC50 reference

Consider the following illustrative entries.
1) C=CC(=O)N1CCO[C@H]2CN(C(=O)N(C)[C@H](C(=O)N[C@H]3Cc4cccc(c4)-c4ccc5c(c4)c(c(-c4cccnc4[C@H](C)OC)n5CC)CC(C)(C)COC(=O)C4CCCN(N4)C3=O)C(C)C)C[C@H]21 (stereo partly shown) ... 7.00 to 8.00
2) CCn1c(-c2cccnc2COC)c2c3cc(ccc31)-c1cc(O)cc(c1)C[C@H](NC(=O)[C@@H](C(C)C)N(C)C(=O)[C@H]1CCN(C(=O)C#CCN(C)C)C1)C(=O)N1CCC[C@H](N1)C(=O)OCC(C)(C)C2 ... 7.00 to 8.00
3) C=CC(=O)N1CC[C@H](C(=O)N(C)[C@H](C(=O)N[C@H]2C[C@H]3CN(CCCO3)c3ccc4c(c3)c(c(-c3cccnc3[C@H](C)OC)n4CC)CC(C)(C)COC(=O)[C@@H]3CCCN(N3)C2=O)C(C)C)C1 (racemic) ... 5.00 to 6.00

Query compound follows.
Challenge: Which pIC50 value belongs to C=CC(=O)N1CC[C@H](C(=O)N(C)[C@H](C(=O)N[C@H]2Cc3cc(O)cc(c3)-c3ccc4c(c3)c(c(-c3ccccc3[C@@H](C)OC)n4CC)CC(C)(C)COC(=O)[C@@H]3CCCN(N3)C2=O)C(C)C)C1 ?
Response given: 7.00 to 8.00

###

pIC50 reference
Biological target: KRAS WT (Homo sapiens, UniProt P01116+P62937)
Sequence (P01116 1-169 isoform P01116-2 limits assumed, one chain of several): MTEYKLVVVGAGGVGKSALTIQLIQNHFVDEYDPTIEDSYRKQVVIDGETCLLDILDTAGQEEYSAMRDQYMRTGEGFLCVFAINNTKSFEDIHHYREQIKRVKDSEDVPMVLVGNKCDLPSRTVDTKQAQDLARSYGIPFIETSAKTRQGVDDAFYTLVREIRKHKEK
Assay: Ras-Raf disruption / FRET / MOA assay (BRAF RBD)
Format: biochemical
Settings: Ras-Raf disruption, with Cyclophilin A; read-out: KRAS WT FRET data IC50
pIC50: −log10 of the molar value.

1) CCn1c(-c2cccnc2[C@H](C)OC)c2c3cc(ccc31)-c1cc(O)cc(c1)C[C@H](NC(=O)[C@H](C(C)C)N(C)C(=O)C1CN(S(=O)(=O)[C@@H]3CN3C)C1)C(=O)N1CCC[C@H](N1)C(=O)OCC(C)(C)C2 (single isomer, unassigned) [Example 118] ... 6.00 to 7.00
2) CCn1c(-c2cccnc2[C@H](C)OC)c2c3cc(ccc31)-c1cc(O)cc(c1)C[C@H](NC(=O)[C@H](C(C)C)N(C)C(=O)c1ccc([C@H]3CN3)cc1)C(=O)N1CCC[C@H](N1)C(=O)OCC(C)(C)C2 [Example 145] ... 6.00 to 7.00
3) CCn1c(-c2cccnc2[C@H](C)OC)c2c3cc(ccc31)-c1cc(O)cc(c1)C[C@H](NC(=O)[C@H](C(C)C)N(C)C(=O)[C@@H]1CCN(C(=O)[C@H]3CN3)[C@@H]1C)C(=O)N1CCC[C@H](N1)C(=O)OCC(C)(C)C2 (atropisomer, axis not shown) [Example 207] ... 7.00 to 8.00

Query molecule follows.
Challenge: What is its pIC50 for KRAS WT (Homo sapiens, UniProt P01116+P62937)? Entry: CCn1c(-c2cccnc2[C@H](C)OC)c2c3cc(ccc31)-c1cc(O)cc(c1)C[C@H](NC(=O)[C@H](C(C)C)N(C)C(=O)[C@H]1C[C@H](NC(=O)[C@@H]3CN3)C1)C(=O)N1CCC[C@H](N1)C(=O)OCC(C)(C)C2 [Example 167]
Response given: 7.00 to 8.00

###

Biological target: NRAS Q61K (Homo sapiens, UniProt P01111+P62937, Q61K)
Sequence (P01111 whole entry Q61K): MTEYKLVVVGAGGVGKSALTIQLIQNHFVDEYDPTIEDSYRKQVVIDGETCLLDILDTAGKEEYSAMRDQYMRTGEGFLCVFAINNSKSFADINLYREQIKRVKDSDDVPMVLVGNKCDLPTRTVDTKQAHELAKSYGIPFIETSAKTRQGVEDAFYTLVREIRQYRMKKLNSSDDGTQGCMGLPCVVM
Sequence (P62937 whole entry): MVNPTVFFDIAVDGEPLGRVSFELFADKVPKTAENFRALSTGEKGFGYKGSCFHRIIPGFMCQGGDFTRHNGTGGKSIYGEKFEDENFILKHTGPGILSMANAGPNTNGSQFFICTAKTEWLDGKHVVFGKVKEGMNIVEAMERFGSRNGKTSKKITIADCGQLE
Experiment: Disruption of BRAF RBD interaction with Ras (FRET / MOA assay, with Cyclophilin A)
Assay type: biochemical
Conditions: NRAS Q61K; read-out: NRAS Q61K FRET data IC50
pIC50: −log10 of the molar value.
pIC50 reference

1) C=CC(=O)N1CC[C@H](C(=O)N(C)[C@H](C(=O)N[C@H]2Cc3cc(O)cc(c3)-c3ccc4c(c3)c(c(-c3cncc(COC)c3)n4CC)CC(C)(C)COC(=O)[C@@H]3CCCN(N3)C2=O)C(C)C)C1 [Example A083] ... 5.00 to 6.00

Challenge: What is its pIC50 for NRAS Q61K (Homo sapiens, UniProt P01111+P62937, Q61K)? Entry: CCn1c(-c2cccnc2[C@H](C)OC)c2c3cc(ccc31)-c1csc(n1)C[C@H](NC(=O)[C@H](C(C)C)N(C)C(=O)N1CC3CC(C1)N3C)C(=O)N1CCC[C@H](N1)C(=O)OCC(C)(C)C2 [Example A284]
Response given: 6.00 to 7.00

###

IC50 reference
Biological target: KRAS G12V (Homo sapiens, UniProt P01116+P62937, G12V)
Sequence (P01116 1-169 isoform P01116-2 G12V limits assumed): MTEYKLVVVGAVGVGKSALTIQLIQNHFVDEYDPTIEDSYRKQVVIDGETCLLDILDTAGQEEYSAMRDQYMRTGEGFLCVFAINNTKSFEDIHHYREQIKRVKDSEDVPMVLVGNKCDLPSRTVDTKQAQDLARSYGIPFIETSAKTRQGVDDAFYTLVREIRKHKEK
Sequence (P62937 whole entry): as the sequence (P62937 whole entry) above
Experiment: Ras-Raf disruption / FRET / MOA assay (BRAF RBD)
Assay type: biochemical
Conditions: Ras-Raf disruption, with Cyclophilin A; read-out: KRAS G12V FRET data IC50

1. CCn1c(-c2cccnc2[C@H](C)OC)c2c3cc(ccc31)-c1cc(O)cc(c1)C[C@H](NC(=O)[C@H](C(C)C)N(C)C(=O)N(C)CCN(C)C(=O)[C@H]1CN1)C(=O)N1CCC[C@H](N1)C(=O)OCC(C)(C)C2 (atropisomer, axis not shown) [Example 204] ... 0.01 to 0.1 µM
2. CCn1c(-c2cccnc2[C@H](C)OC)c2c3cc(ccc31)-c1cc(O)cc(c1)C[C@H](NC(=O)[C@H](C(C)C)N(C)C(=O)[C@]1(F)CCN(C(=O)[C@H]3CN3)C1)C(=O)N1CCC[C@H](N1)C(=O)OCC(C)(C)C2 (atropisomer, axis not shown) [Example 311] ... 0.1 to 1 µM
3. CCn1c(-c2cccnc2[C@H](C)OC)c2c3cc(ccc31)-c1csc(n1)C[C@H](NC(=O)[C@H](C(C)C)N(C)C(=O)N1CC(CN(C)C(=O)[C@H]3CN3)C1)C(=O)N1CCC[C@H](N1)C(=O)OCC(C)(C)C2 (atropisomer, axis not shown) [Example 224] ... 0.1 to 1 µM
4. CCn1c(-c2cnccc2COC)c2c3cc(ccc31)-c1cccc(c1)C[C@H](NC(=O)[C@H](C(C)C)N(C)C(=O)CCN=C=NCCOC)C(=O)N1CCC[C@H](N1)C(=O)OCC(C)(C)C2 [23 A and B] ... > 10 µM
5. CCn1c(-c2cnccc2COC)c2c3cc(ccc31)-c1cccc(c1)C[C@H](NC(=O)[C@H](C(C)C)N(C)C(=O)CCN=C=NCc1ccccc1)C(=O)N1CCC[C@H](N1)C(=O)OCC(C)(C)C2 [19 A and B] ... > 10 µM

Challenge: Which IC50 value belongs to CCCN=C=NCCC(=O)N(C)[C@H](C(=O)N[C@H]1Cc2cccc(c2)-c2ccc3c(c2)c(c(-c2cnccc2COC)n3CC)CC(C)(C)COC(=O)[C@@H]2CCCN(N2)C1=O)C(C)C [22 A and B] ?
Response given: 1 to 10 µM

Challenge: Which IC50 value belongs to CCn1c(-c2cccnc2[C@H](C)OC)c2c3cc(ccc31)-c1csc(n1)C[C@H](NC(=O)[C@H](C(C)C)N(C)C(=O)N1CCC[C@H](N(C)C(=O)[C@@H]3CN3)C1)C(=O)N1CCC[C@H](N1)C(=O)OCC(C)(C)C2 (atropisomer, axis not shown) [Example 292] ?
Response given: 0.1 to 1 µM

Challenge: Which IC50 value belongs to CCn1c(-c2cccnc2[C@H](C)OC)c2c3cc(ccc31)-c1cc(O)cc(c1)C[C@H](NC(=O)[C@H](C(C)C)N(C)C(=O)c1ccc(NC(=O)[C@@H]3CN3)cn1)C(=O)N1CCC[C@H](N1)C(=O)OCC(C)(C)C2 (atropisomer, axis not shown) [Example 187] ?
Response given: 0.1 to 1 µM

###

Molecular target: KRAS Q61H (Homo sapiens, UniProt P01116+P62937, Q61H)
Sequence (P01116 1-169 isoform P01116-2 Q61H limits assumed, one chain of several): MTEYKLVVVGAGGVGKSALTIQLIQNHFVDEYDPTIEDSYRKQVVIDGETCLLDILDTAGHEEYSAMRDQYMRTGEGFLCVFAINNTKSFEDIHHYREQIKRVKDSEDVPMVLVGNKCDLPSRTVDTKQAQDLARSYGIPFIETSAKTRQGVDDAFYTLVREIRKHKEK
Assay: Disruption of BRAF RBD interaction with Ras (FRET / MOA assay, with Cyclophilin A)
Type: biochemical
Settings: KRAS Q61H; read-out: KRAS Q61H FRET data IC50
IC50 reference

1) CCn1c(-c2cc(N3CCN(C)CC3)cnc2[C@H](C)OC)c2c3cc(ccc31)-c1cc(O)cc(c1)C[C@H](NC(=O)[C@H](C1CCCC1)N(C)C(=O)[C@H]1OCC[C@H]1c1ccccc1)C(=O)N1CCC[C@H](N1)C(=O)OCC(C)(C)C2 ... 100 to 1000 nM
2) CCn1c(-c2cccnc2[C@H](C)OC)c2c3cc(ccc31)-c1csc(n1)C[C@H](NC(=O)[C@H](C(C)C)N(C)C(=O)N1CC[C@H]1C(=O)NC)C(=O)N1CC(C)C[C@H](N1)C(=O)OCC(C)(C)C2 (some centres unmarked) ... 100 to 1000 nM
3) C=CC(=O)N1CC[C@H](C(=O)N(C)[C@H](C(=O)N[C@H]2Cc3cc(O)cc(c3)-c3ccc4c(c3)c(c(-c3ccccc3[C@H](C)OC)n4CC)CC(C)(C)COC(=O)[C@@H]3CCCN(N3)C2=O)C(C)C)C1 ... 10 to 100 nM
4) CCn1c(-c2cc(N3CCN(C)CC3)cnc2[C@H](C)OC)c2c3cc(ccc31)-c1csc(n1)C[C@H](NC(=O)[C@H](C1CCCC1)N(C)C(=O)N(C)C)C(=O)N1CCC[C@H](N1)C(=O)OCC(C)(C)C2 (atropisomer, axis not shown) ... 10 to 100 nM
5) C=CC(=O)N1CC[C@H](C(=O)N(C)[C@H](C(=O)N[C@H]2Cc3cc(O)cc(c3)-c3ccc4c(c3)c(c(-c3ccccc3N3CCOCC3)n4CC)CC(C)(C)COC(=O)[C@@H]3CCCN(N3)C2=O)C(C)C)C1 ... 1000 to 10000 nM

Challenge: Which IC50 value belongs to C=CC(=O)N1CCO[C@@]2(CCN(C(=O)N(C)[C@H](C(=O)N[C@H]3Cc4nc(cs4)-c4ccc5c(c4)c(c(-c4cccnc4[C@H](C)OC)n5CC(F)(F)F)CC(C)(C)COC(=O)C4CCCN(N4)C3=O)C(C)C)C2)C1 (some centres unmarked) ?
Response given: 10 to 100 nM

Challenge: Which IC50 value belongs to C=CC(=O)N1CC[C@H](C(=O)N(C)[C@H](C(=O)N[C@H]2Cc3cc(O)cc(c3)-c3ccc4c(c3)c(c(-c3ccnc5c3[C@@H](OC)CC5)n4CC)CC(C)(C)COC(=O)[C@@H]3CCCN(N3)C2=O)C(C)C)C1 ?
Response given: 10 to 100 nM

Challenge: Which IC50 value belongs to CCn1c(-c2cccnc2[C@H](C)OC)c2c3cc(ccc31)-c1cccc(c1)C[C@H](NC(=O)[C@H](C(C)C)N1CC[C@]3(CCN(C(=O)C#C[C@]4(N(C)C)CCOC4)C3)C1=O)C(=O)N1CCC[C@H](N1)C(=O)OCC(C)(C)C2 ?
Response given: 100 to 1000 nM
